# assay.system: bovine serum albumin (BSA) (Bos taurus, UniProt P02769)
# Construct: purchased Sigma Aldrich
# Sequence (P02769 25-607): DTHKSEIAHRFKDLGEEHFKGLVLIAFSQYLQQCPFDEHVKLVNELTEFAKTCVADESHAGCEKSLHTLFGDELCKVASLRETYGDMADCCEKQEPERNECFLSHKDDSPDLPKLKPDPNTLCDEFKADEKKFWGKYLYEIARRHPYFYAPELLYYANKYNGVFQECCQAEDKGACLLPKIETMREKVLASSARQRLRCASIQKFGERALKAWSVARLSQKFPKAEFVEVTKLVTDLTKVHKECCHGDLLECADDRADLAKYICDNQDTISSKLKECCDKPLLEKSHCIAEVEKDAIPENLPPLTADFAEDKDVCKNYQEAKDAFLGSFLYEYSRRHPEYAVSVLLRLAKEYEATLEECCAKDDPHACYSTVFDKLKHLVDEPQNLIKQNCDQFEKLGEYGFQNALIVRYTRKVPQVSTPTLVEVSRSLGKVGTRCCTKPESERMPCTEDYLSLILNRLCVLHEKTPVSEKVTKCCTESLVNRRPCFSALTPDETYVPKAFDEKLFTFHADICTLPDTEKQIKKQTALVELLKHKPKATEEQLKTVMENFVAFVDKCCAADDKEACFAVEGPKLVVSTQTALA
# test.method.notes: NP TLC on plates impregnated with bovine serum albumin
# Format: binding
# measurement.context: Table S3, NP plate impregnated with 2 mg/mL BSA; pH 7.4 mobile phase
Binary classification by NP (Rf, BSA-impregnated NP plate), with 0.7 as an inclusive lower bound for fulfilled; all other cases are not fulfilled.

O=C(CCCN1CCC(O)(c2ccc(Cl)cc2)CC1)c1ccc(F)cc1    not fulfilled
COC(=O)[C@@H]1CC2=CC(=O)CC[C@]2(C)[C@@]23O[C@@H]2C[C@@]2(C)[C@@H](CC[C@@]24CCC(=O)O4)[C@H]13    fulfilled
CCOC(=O)[C@H](CCc1ccccc1)N[C@@H](C)C(=O)N1CCC[C@H]1C(=O)O    not fulfilled
CC(C)NCC(O)COc1ccc(CCOCC2CC2)cc1 (stereo not shown)    not fulfilled
CO/N=C(\C(=O)N[C@@H]1C(=O)N2C(C(=O)O)=C(COC(N)=O)CS[C@H]12)c1ccco1    fulfilled
CN/C(=N/CCSCc1nc[nH]c1C)NC#N    not fulfilled
CCCc1nc2c(C)cc(-c3nc4ccccc4n3C)cc2n1Cc1ccc(-c2ccccc2C(=O)O)cc1    fulfilled
Fc1ccc([C@@H]2CCNC[C@H]2COc2ccc3c(c2)OCO3)cc1    not fulfilled

In plain terms: is recorded NP (Rf, BSA-impregnated NP plate) at least 0.7 for CCOC(=O)[C@H](CCc1ccccc1)N[C@@H](C)C(=O)N1Cc2ccccc2C[C@H]1C(=O)O ? not fulfilled

In plain terms: is recorded NP (Rf, BSA-impregnated NP plate) at least 0.7 for CCC[C@H](N[C@@H](C)C(=O)N1[C@H](C(=O)O)C[C@@H]2CCCC[C@@H]21)C(=O)OCC ? not fulfilled

In plain terms: is recorded NP (Rf, BSA-impregnated NP plate) at least 0.7 for CCCCCOC(=O)Nc1nc(=O)n([C@@H]2O[C@H](C)[C@@H](O)[C@H]2O)cc1F ? fulfilled

In plain terms: is recorded NP (Rf, BSA-impregnated NP plate) at least 0.7 for O=C(O)C1N=C(c2ccccc2)c2cc(Cl)ccc2NC1=O (stereo not shown) [clorazepate] ? fulfilled

In plain terms: is recorded NP (Rf, BSA-impregnated NP plate) at least 0.7 for CC(=O)S[C@@H]1CC2=CC(=O)CC[C@]2(C)[C@H]2CC[C@@]3(C)[C@@H](CC[C@@]34CCC(=O)O4)[C@H]12 ? fulfilled
